targetDesc: KDR (human, UniProt P35968 20-1356)
Sequence (P35968 20-1356): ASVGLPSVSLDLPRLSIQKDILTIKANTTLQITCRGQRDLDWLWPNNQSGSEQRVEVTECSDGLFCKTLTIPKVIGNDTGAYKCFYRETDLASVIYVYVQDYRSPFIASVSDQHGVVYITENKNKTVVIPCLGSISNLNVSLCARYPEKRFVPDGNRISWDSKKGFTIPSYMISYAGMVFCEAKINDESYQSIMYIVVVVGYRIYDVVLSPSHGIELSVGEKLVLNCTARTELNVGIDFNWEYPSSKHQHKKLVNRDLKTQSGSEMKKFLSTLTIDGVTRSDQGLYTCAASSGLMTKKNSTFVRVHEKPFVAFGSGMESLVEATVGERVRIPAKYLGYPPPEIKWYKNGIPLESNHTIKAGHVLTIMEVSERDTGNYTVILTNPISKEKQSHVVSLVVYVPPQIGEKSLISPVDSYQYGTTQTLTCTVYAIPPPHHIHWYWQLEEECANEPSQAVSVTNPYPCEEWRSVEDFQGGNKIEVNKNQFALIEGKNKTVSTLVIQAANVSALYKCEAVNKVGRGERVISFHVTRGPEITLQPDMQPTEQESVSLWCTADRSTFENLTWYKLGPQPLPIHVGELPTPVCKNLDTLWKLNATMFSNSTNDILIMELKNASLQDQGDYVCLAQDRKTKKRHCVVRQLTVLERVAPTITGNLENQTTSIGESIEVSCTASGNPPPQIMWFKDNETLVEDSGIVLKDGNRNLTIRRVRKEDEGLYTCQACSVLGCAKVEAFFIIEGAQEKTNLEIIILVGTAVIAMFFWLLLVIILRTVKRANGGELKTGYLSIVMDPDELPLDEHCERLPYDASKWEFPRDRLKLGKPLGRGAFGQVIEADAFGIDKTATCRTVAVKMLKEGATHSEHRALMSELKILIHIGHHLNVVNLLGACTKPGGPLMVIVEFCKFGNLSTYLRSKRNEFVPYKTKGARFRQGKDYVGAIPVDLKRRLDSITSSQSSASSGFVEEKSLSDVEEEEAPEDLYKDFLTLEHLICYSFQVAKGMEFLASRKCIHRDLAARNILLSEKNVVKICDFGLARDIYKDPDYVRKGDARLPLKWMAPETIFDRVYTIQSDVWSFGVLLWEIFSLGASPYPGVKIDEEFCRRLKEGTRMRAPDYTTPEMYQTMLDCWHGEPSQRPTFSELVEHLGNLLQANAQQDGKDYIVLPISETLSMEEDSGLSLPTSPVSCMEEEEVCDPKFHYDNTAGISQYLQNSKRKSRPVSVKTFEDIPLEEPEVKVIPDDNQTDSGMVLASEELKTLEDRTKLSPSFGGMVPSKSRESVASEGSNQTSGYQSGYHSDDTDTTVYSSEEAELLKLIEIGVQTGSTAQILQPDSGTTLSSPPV
testMethodNotes: cell-based or functional assay
Note to self: class = bucket of Activity at 133 nM (% Inhibition), 24-hour Pre-incubation at 37° C., N = 2, per low = under 20%, middle = from 20% up to 70%, high = 70% and over

Below, 7 binders whose answers are already recorded.
binder | labelClass
32G7 (antibody, V domains shown) VH: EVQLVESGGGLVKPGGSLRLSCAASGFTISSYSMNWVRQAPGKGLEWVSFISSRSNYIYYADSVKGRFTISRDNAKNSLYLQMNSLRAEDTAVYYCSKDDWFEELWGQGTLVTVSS VL: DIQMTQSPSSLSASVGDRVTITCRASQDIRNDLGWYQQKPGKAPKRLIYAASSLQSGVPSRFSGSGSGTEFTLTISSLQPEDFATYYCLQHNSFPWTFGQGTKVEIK | high
33D5 (antibody, V domains shown) VH: QVQLVQSGAEVKKPGASVKVSCKASGYTFGSYDINWVRQATGQGLEWMGWMNPNSGNTGYAQKFQGRVTLTRNTSIRTVYMELSSLRSEDTAVYYCARGGYSNLGWFDPWGQGSLVTVSS VL: DIQMTQSPSSVSVSVGDRVTITCRASQGISSWLAWYQQKPGKAPKLLIYAASSLQSGVPSRFSGSGSGTDFTLTISSLQPEDFATYYCQQANSFPFTFGPGTKVDIK | low
21H9 (antibody, V domains shown) VH: QVPLVESGGGVVQPGRSLRLSCAASGFTFSSYGMHWVRQAPGKGLEWVAVIWYDGSNKYYADSVQGRFTISRDNSKNTLYLQMNSLRAEDTAVYYCARGVTMVRGLIIARYYYGLDVWGQGTTVTVSS VL: DIVMTQTPLSSPVTFGQPASISCRSSQSLVHSDGNTYLSWLQQRPGQPPRLLIYKISNRFFGVPDRFSGSGAGTDFTLKISRVEAEDVGLYYCMQSTQFPLTFGGGTKVEIK | low
22B8 (antibody, V domains shown) VH: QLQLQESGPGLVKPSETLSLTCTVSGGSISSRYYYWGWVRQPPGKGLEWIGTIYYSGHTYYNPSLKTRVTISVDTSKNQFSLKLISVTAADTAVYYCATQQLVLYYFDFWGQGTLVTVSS VL: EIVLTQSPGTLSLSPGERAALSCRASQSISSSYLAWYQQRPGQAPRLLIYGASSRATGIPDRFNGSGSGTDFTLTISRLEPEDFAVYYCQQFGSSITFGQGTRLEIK | high
29F7 (antibody, V domains shown) VH: QVQLVQSGAEVKKPGASVKVSCKASGYTFTSYDINWVRQATGQGLEWMGWMNPNSGKTGYAQKFQGRVTMTRSTSISTAYMELSSLRSEDTAVYYCARGGYSNLGWFDPWGQGTLVTVSS VL: DIQMTQSPSSVFASVGDRVTITCRASQGISTWLAWYQQKPGKAPKFLIYAASSLQSGVPSRFSGSGSGTDFTLTISSLQPDDFATYYCQQANNFPFTFGPGTKVDIK | middle
29H3 (antibody, V domains shown) VH: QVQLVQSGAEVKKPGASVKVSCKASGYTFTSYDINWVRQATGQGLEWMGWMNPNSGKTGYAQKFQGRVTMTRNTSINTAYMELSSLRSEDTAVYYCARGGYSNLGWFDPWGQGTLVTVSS VL: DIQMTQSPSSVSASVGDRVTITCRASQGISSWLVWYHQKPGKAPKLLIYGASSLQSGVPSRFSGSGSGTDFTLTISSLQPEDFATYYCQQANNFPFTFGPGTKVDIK | middle
32F4 (antibody, V domains shown) VH: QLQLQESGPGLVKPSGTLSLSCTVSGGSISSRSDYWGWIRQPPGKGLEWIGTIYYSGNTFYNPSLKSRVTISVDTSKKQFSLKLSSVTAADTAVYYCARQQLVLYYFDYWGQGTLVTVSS VL: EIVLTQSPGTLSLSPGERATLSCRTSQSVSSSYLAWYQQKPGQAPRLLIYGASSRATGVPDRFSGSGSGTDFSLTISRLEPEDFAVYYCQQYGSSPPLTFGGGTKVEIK | low

Now consider the entry below.
State the band of 29A3 (antibody, V domains shown) VH: QVQLQESGPGLVKPSETLSLTCTVSGGSISSYFWSWIRQPAGKGLEWIGRIYFSGRTNYNPSLKSRVTMSVETSKNQFSLKLNSVTAADTAVYYCARDGGWNYDVAFDYWGQGTLVTVSS VL: QAVLTQPSSLSASPGASASLTCTLRSGINVGTYRIYWYQQKPGSPPQYLLRYKSDSDQLQGSGVPSRFSGSKDASANAGILLISGLQSEDEADYYCMVWHSNTWVFGGGTKLTVL
low

Data origin, for the record: patent US20100260765A1
